- Target Of Assay: human TRPV1 receptor (Homo sapiens, UniProt Q8NER1, M315I/T336M)
- Construct: expressed in transfected cells; host or cells: HEK-293
- Sequence (Q8NER1 whole entry M315I/T336M): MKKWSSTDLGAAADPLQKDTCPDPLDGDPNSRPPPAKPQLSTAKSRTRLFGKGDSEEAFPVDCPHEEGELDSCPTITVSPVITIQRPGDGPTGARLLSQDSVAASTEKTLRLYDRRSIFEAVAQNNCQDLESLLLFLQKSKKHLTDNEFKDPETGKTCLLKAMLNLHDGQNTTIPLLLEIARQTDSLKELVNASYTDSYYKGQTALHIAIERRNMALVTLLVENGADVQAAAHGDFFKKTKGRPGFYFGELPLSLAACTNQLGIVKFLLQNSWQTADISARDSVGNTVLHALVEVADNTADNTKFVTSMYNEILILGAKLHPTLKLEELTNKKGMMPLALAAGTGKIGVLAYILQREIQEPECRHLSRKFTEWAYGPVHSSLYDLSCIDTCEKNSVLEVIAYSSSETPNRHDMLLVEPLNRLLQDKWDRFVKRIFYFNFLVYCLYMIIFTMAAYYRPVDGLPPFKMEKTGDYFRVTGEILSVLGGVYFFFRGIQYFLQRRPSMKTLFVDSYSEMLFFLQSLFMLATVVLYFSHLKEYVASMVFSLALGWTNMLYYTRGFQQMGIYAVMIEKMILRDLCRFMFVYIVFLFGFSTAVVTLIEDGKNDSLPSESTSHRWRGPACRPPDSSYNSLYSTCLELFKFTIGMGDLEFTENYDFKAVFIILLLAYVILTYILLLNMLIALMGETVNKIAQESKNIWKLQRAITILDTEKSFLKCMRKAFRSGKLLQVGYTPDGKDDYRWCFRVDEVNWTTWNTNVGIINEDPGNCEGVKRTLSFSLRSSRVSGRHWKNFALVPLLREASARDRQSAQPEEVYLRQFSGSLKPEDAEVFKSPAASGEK
- Test: FLIPR calcium flux, antagonists to CPC activation of TRPV1
- Assay type: cell-based
- Details: TRPV1; compound 1 mM (0.04% for extracts), CPC 100 uM
Listed here: items and their measured % inhibition of CPC activation.
Measurement Kind: % inhibition of CPC activation (%)

>>> df
                                   molecule                           target_of_assay   val
0  CC(=O)[O-].CC(=O)[O-].[Zn+2] [Zinc Acetate]  human TRPV1 receptor (Homo sapiens, UniProt Q8NER1, M315I/T336M)  89.8
1  CC1=CCCC(C)(C)C1/C=C/C(C)O (stereo not drawn) [alpha-Ionol]  human TRPV1 receptor (Homo sapiens, UniProt Q8NER1, M315I/T336M)  66.2
2  O=S(=O)([O-])[O-].[Mg+2] [Magnesium sulfate]  human TRPV1 receptor (Homo sapiens, UniProt Q8NER1, M315I/T336M)  88.1
3  CC1=C(/C=C/C(C)O)C(C)(C)CCC1 (stereo not drawn) [beta-Ionol]  human TRPV1 receptor (Homo sapiens, UniProt Q8NER1, M315I/T336M)  65.9
